Every entry's value here was drawn from the kinase profiling compilation of Christmann-Franck et al. (2016).

target.system: CDK7 CCNH MNAT1 (human) (UniProt P50613+P51948+P51946)
Sequence (P50613 whole entry, looked up): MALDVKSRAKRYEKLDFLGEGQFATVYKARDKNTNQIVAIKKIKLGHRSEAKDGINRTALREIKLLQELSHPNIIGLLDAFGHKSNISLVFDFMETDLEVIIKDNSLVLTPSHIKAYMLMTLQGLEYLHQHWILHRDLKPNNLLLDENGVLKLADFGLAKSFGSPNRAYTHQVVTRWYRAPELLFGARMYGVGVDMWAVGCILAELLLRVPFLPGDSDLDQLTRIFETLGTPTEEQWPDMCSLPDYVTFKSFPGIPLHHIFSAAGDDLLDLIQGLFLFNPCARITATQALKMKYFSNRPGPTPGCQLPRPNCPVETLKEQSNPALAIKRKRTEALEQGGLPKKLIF
Sequence (P51946 whole entry, looked up): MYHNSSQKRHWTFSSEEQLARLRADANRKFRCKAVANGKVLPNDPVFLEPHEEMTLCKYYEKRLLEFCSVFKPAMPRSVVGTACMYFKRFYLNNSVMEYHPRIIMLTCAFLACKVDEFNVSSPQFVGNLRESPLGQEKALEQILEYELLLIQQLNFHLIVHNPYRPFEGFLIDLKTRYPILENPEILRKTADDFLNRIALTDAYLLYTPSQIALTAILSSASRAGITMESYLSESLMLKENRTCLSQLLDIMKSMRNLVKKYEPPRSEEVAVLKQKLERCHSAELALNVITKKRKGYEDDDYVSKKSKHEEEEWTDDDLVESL
Sequence (P51948 whole entry, looked up): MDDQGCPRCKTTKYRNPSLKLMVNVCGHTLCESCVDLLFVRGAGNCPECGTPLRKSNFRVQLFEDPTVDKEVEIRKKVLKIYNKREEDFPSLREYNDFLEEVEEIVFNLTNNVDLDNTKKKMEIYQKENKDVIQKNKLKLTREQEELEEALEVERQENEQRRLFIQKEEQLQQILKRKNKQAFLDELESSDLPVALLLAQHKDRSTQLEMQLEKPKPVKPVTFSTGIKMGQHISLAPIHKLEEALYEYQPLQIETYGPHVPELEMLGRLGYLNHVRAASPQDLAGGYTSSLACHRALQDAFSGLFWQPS
assay.method.text: radiometric filter-binding kinase assay, Kinase HotSpot
condition.notes: compound 0.5 µM; ATP 10 µM
observed.property: residual activity (%)
Provide the reading as a plain figure in %.

Record excerpt, results attached:
>  <structure.smiles.string>
CCCCc1c(-c2ccc(OC)cc2)[nH]c2nccnc12

>  <observed.property>
residual activity

>  <unit.label>
%

>  <numeric.value>
92.6

$$$$
>  <structure.smiles.string>
NCCNc1ncc(C(N)=O)c(Nc2cccc(C(F)(F)F)c2)n1

>  <observed.property>
residual activity

>  <unit.label>
%

>  <numeric.value>
98.5

$$$$
>  <structure.smiles.string>
COc1ccc2c(c1)/C(=C/c1cnc[nH]1)C(O)=N2

>  <observed.property>
residual activity

>  <unit.label>
%

>  <numeric.value>
84.2

$$$$
>  <structure.smiles.string>
O=C(c1cc2cc(O)ccc2[nH]1)c1cc2cc(O)ccc2[nH]1

>  <observed.property>
residual activity

>  <unit.label>
%

>  <numeric.value>
93.5

$$$$
>  <structure.smiles.string>
Cc1cncc2cccc(S(=O)(=O)N3CCCN(C(=O)CN)C[C@H]3C)c12

>  <observed.property>
residual activity

>  <unit.label>
%

>  <numeric.value>
98

$$$$

Report residual activity for Ic1cccc(CSc2nnc(-c3ccncc3)o2)c1 please.
96.7

Next entry: CN(C)CCCn1cc(C2=C(c3c[nH]c4ccccc34)C(=O)NC2=O)c2ccccc21
92.1

// same read-out, input: Cc1nc(-c2ccccc2)c(-c2ccncc2)o1
109

Try CS(=O)(=O)CCNCc1ccc(-c2ccc3ncnc(Nc4ccc(OCc5cccc(F)c5)c(Cl)c4)c3c2)o1 next.
109

# repeat for Cn1c2ccccc2c2c3c(c4c5ccccc5n(CCC#N)c4c21)CNC3=O
84.6

// query: CN1CCN(c2ccc3nc(-c4c(N)c5c(F)cccc5[nH]c4=O)[nH]c3c2)CC1
104

Next record, please: CC(C)(C)c1cc(C=C(C#N)C#N)cc(Br)c1O
98.5

Try COc1cc2ncnc(Nc3ccc(OCc4ccccc4)cc3)c2cc1OC next.
98.8

Another compound: Cc1cn(-c2cc(NC(=O)c3ccc(C)c(Nc4nccc(-c5cccnc5)n4)c3)cc(C(F)(F)F)c2)cn1
109

Moving on to the next compound: CN(C)S(=O)(=O)c1ccc2c(c1)/C(=C/c1cc3c([nH]1)CCCC3)C(=O)N2
76.4

Another: COc1cc(Nc2c(C#N)cnc3cc(OCCCN4CCN(C)CC4)c(OC)cc23)c(Cl)cc1Cl
113

Subsequent entry: COc1cc2ncnc(Nc3ccc(Oc4ccccc4)cc3)c2cc1OC
102

Would you mind doing Fc1ccc(-c2nc3n(c2-c2ccncc2)CCS3)cc1 as well?
95

Would you kindly repeat that for C[C@@H]1CCN(C(=O)CC#N)C[C@@H]1N(C)c1ncnc2[nH]ccc12 ?
119

// next record c1ccc2c(-c3ccncc3)c[nH]c2c1
97

Try O=C1C(Cl)=C(N2C(=O)CCC2=O)C(=O)c2ccccc21 next.
101
